- target: DYRK1A (Homo sapiens, UniProt Q13627)
- Construct: host or cells: Sf9 insect cells (baculovirus)
- test summary: ADP-Glo kinase inhibition assay, DYRK1A
- Type: biochemical
- assay conditions: 10 μM compound; percentage of maximum activity of the DMSO control; mean n = 2; 10 µM ATP; read-out: Residual activity DYRK1A
Measured remaining activity at 10 µM of individual entries
Dear colleague, please return just the value in %, with no unit written.

[
  {
    "molecule": "COC(=N)c1nc2cc3c(=O)n(Cc4ccccc4)cnc3cc2s1",
    "measured number": 103
  },
  {
    "molecule": "COC(=N)c1nc2c(ccc3c(=O)n(Cc4ccccc4)cnc32)s1",
    "measured number": 68
  },
  {
    "molecule": "COC(=N)c1nc2cc3ncn(Cc4ccccc4)c(=O)c3cc2s1",
    "measured number": 109
  },
  {
    "molecule": "COC(=N)c1nc2ccc3ncn(Cc4ccccc4)c(=O)c3c2s1 [Compound I, reference compound]",
    "measured number": 21
  },
  {
    "molecule": "COC(=N)c1nc2ccc3c(=O)n(Cc4ccccc4)cnc3c2s1",
    "measured number": 63
  }
]

Tested on DYRK1A (Homo sapiens, UniProt Q13627): COC(=N)c1nc2cc3ncnc(Nc4ccc(OC)cc4F)c3cc2s1 [Compound 15b] . Observed remaining activity at 10 µM: 101

Tested on DYRK1A (Homo sapiens, UniProt Q13627): COC(=N)c1nc2cc3c(Nc4ccc(OC)cc4F)ncnc3cc2s1 [Compound 15a] . Observed remaining activity at 10 µM: 27

# credit: paper PMC11597202
